System: Crude diglycosidase
ASSAY_COMMENT: Examination of pH in the conversion into isoflavone aglycons by diglycosidase using soybean materials
Format: biochemical, Penicillium multicolor IAM7153
Design: concentration or dose not given beside the values
TEST_PARAMETERS: pH5.4; heat treatment of enzyme: no; reaction time 6 h
READOUT_LABEL: Decomposition efficiency of genistin family in defatted soybean (%)

A: O=C(O)CC(=O)OC[C@H]1O[C@@H](Oc2cc(O)c3c(=O)c(-c4ccc(O)cc4)coc3c2)[C@H](O)[C@@H](O)[C@@H]1O [malonylgenistin, 6″-O-malonylgenistin]
B: O=c1c(-c2ccc(O)cc2)coc2cc(O)cc(O)c12 [genistein]
QUERY: Record comparison, field Decomposition efficiency of genistin family in defatted soybean: mark the lower of A and B . Reply with the label of the item you choose.
RESULT: A

----------
Test system: Crude diglycosidase
ASSAY_COMMENT: Examination of temperature in the conversion into isoflavone aglycons by diglycosidase using soybean materials
Format: biochemical, Penicillium multicolor IAM7153
TEST_PARAMETERS: 45° C., heat treatment of enzyme no, reaction time 6 h
READOUT_LABEL: Decomposition efficiency of genistin family in defatted soybean (%)

>>> df
                                smiles_text  value_measured
0  O=C(O)CC(=O)OC[C@H]1O[C@@H](Oc2cc(O)c3c(=O)c(-c4ccc(O)cc4)coc3c2)[C@H](O)[C@@H](O)[C@@H]1O            44.2

1: O=c1c(-c2ccc(O)cc2)coc2cc(O[C@@H]3O[C@H](CO)[C@@H](O)[C@H](O)[C@H]3O)cc(O)c12
2: O=c1c(-c2ccc(O)cc2)coc2cc(O)cc(O)c12
QUERY: Given the two records 1 and 2 , choose the one whose Decomposition efficiency of genistin family in defatted soybean value is lower. // return label of chosen record
RESULT: 1
(1: 1.0%, 2: 54.6%)

----------
Tested on: Crude diglycosidase
ASSAY_COMMENT: Examination of pH in the conversion into isoflavone aglycons by diglycosidase using soybean materials
Type: biochemical, Penicillium multicolor IAM7153
TEST_PARAMETERS: pH7.8; heat treatment of enzyme: no; reaction time 3 h
READOUT_LABEL: Decomposition efficiency of glycitin family in defatted soybean (%)

In [3]: df
Out[3]:
                                smiles_text  value_measured
0  COc1cc2c(=O)c(-c3ccc(O)cc3)coc2cc1O[C@@H]1O[C@H](COC(=O)CC(=O)O)[C@@H](O)[C@H](O)[C@H]1O            53.2
1       COc1cc2c(=O)c(-c3ccc(O)cc3)coc2cc1O            46.8

----------
Test system: Crude diglycosidase
ASSAY_COMMENT: Examination of temperature in the conversion into isoflavone aglycons by diglycosidase using soybean materials
Assay type: biochemical, Penicillium multicolor IAM7153
TEST_PARAMETERS: 55 °C; heat treatment of enzyme: no; 3 h
READOUT_LABEL: Decomposition efficiency of glycitin family in soymilk (%)

a: COc1cc2c(=O)c(-c3ccc(O)cc3)coc2cc1O
b: COc1cc2c(=O)c(-c3ccc(O)cc3)coc2cc1O[C@@H]1O[C@H](COC(=O)CC(=O)O)[C@@H](O)[C@H](O)[C@H]1O
QUERY: Lab note: check whether a or b shows the higher recorded Decomposition efficiency of glycitin family in soymilk. Could you answer with the label of the item you picked?
RESULT: a

Where these numbers come from: patent US7118895B2
